# System: AA1029
# procedure.details: qHTS profiling for inhibitors of Plasmodium falciparum proliferation (AID 504749); also: nearly all actives have a fitted effect of over 60% in size
# condition.notes: P. falciparum in erythrocytes, SYBR Green DNA, 72 h; series mostly up to 28.7 µM
Results filed as inconclusive are left out. Activity calls are given as the source filed them. Calls follow the shape of the dose curve; as a rule, active = well fitted inhibition curve with a large enough effect; inconclusive = small, poorly fitted or top-dose-only effect; inactive = flat fitted curve, though single readings scatter.
Respond using exactly one of the listed classes: label 1 for active, label 0 for inactive

Solved entries (count: 3):
[
  {
    "compound": "CCCc1ccc(C(=O)O)cc1",
    "group.label": "label 0"
  },
  {
    "compound": "CCCCCCOC(=O)c1cccnc1",
    "group.label": "label 0"
  },
  {
    "compound": "CC(C)CCC[C@@H](C)[C@H]1CC[C@H]2[C@@H]3CC[C@@H]4C[C@H](O)CC[C@]4(C)[C@H]3CC[C@]12C",
    "group.label": "label 0"
  }
]

Field: next compound
Hi, sorry to bother you, what did the test record for CCCCCc1ccc(C)cc1O ?
label 0

* * *

# procedure.details: P-glycoprotein substrates identified in KB-8-5-11 adenocarcinoma cell line, qHTS therapeutic library screen (AID 1346987); also: % is scaled to controls: 0 for no effect and ±100 for the full control effect; nearly all actives have a fitted effect of over 65% in size
# condition.notes: KB-8-5-11 (P-gp overexpressing) viability, CellTiter-Glo, 72 h; series mostly up to 44.5 µM
Records with an inconclusive call do not appear. Calls of active or inactive are those of the source. Calls come from the whole dose curve; as a rule, active = well fitted inhibition curve with a large enough effect; inconclusive = small, poorly fitted or top-dose-only effect; inactive = flat fitted curve, though single readings scatter.
Respond using exactly one of the listed classes: Y for active, N for inactive

Hi, sorry to bother you, what did the test record for NC(N)=NCC1COc2ccccc2O1 (centres undefined) ?
N

Hi, sorry to bother you, what did the test record for Cc1ccccn1 ?
N

* * *

# procedure.details: qHTS Counterscreen for compound interference against the NCATS DSHEA and TCM libraries (AID 1919978);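 also: compounds preincubated with 1 µM D-luciferin or buffer before detection reagent; % of control where 0% means no effect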
# condition.notes: firefly luciferase detection reagent interference, luminescence
endpoint.name: max response (%)
Answer in %, number only, no unit symbol.

Here's what some known entries look like.
[
  {
    "compound": "C=C1CC[C@H](O)CC1=C/C=C1\\CCC[C@]2(C)[C@@H]([C@H](C)/C=C/[C@H](C)C(C)C)CC[C@@H]12",
    "endpoint.value": -0.883
  },
  {
    "compound": "CC(C)=CCC/C(C)=C/CC/C(C)=C/CC/C(C)=C/CC1=C(C)C(=O)c2ccccc2C1=O",
    "endpoint.value": -2.14
  },
  {
    "compound": "CC[C@H](CC[C@@H](C)[C@H]1CC[C@H]2[C@@H]3CC=C4C[C@@H](O)CC[C@]4(C)[C@H]3CC[C@]12C)C(C)C",
    "endpoint.value": -1.45
  }
]

Return max response for the following compound: CC/C=C\C/C=C\C/C=C\C/C=C\C/C=C\C/C=C\CCC(=O)O
-0.949

* * *

# System: AA1029
# procedure.details: qHTS profiling for inhibitors of Plasmodium falciparum proliferation (AID 504749); also: nearly all actives have a fitted effect of over 60% in size
# condition.notes: P. falciparum in erythrocytes, SYBR Green DNA, 72 h; series mostly up to 28.7 µM
Records with an inconclusive call do not appear. The source made the active and inactive calls. Calls come from the whole dose curve; as a rule, active = well fitted inhibition curve with a large enough effect; inconclusive = small, poorly fitted or top-dose-only effect; inactive = flat fitted curve, though single readings scatter.
Respond using exactly one of the listed classes: class 1 = active, class 0 = inactive

[
  {
    "molecule": "COc1ccc2c(c1)OC(C)(C)C(c1ccccc1)C2c1ccc(OCCN2CCCC2)cc1 (stereo unspecified)",
    "group.label": "class 1"
  },
  {
    "molecule": "O=C1c2ccccc2C(=O)c2c1ccc(O)c2O",
    "group.label": "class 0"
  },
  {
    "molecule": "[O-][N+](=Nc1ccccc1)c1ccccc1",
    "group.label": "class 0"
  },
  {
    "molecule": "CC(C)(C)CC(C)(C)c1ccc(OCCO)cc1",
    "group.label": "class 0"
  },
  {
    "molecule": "Cc1ccc(S(=O)(=O)O)cc1C",
    "group.label": "class 0"
  },
  {
    "molecule": "Cc1cc(-c2ccc(N=Nc3ccc4c(S(=O)(=O)O)cc(S(=O)(=O)O)c(N)c4c3O)c(C)c2)ccc1N=Nc1ccc2c(S(=O)(=O)O)cc(S(=O)(=O)O)c(N)c2c1O",
    "group.label": "class 0"
  },
  {
    "molecule": "O=S(=O)(O)CC(S)CS (stereo unspecified)",
    "group.label": "class 0"
  },
  {
    "molecule": "CCN(CC)C(=O)c1cccnc1",
    "group.label": "class 0"
  },
  {
    "molecule": "CCN(CC)CCOC(=O)c1cccnc1",
    "group.label": "class 0"
  },
  {
    "molecule": "OC/C=C/c1ccccc1",
    "group.label": "class 0"
  }
]

Hi, sorry to bother you, what did the test record for CO/N=C(\C(=O)N[C@@H]1C(=O)N2C(C(=O)[O-])=C(C[n+]3cccc4c3CCC4)CS[C@H]12)c1csc(N)n1 ?
class 0
